- Test system: OVCAR-8
- method_notes: NCI tumour cell line growth inhibition, 48 h
Activity calls are given as the source filed them. Cut-off read from the data, not from the text of the source: active = GI50 up to about 1.1 µM and inactive = higher.
property_measured: GI50

                                   compound  property_measured                   val
0  CC(=O)OC1CC2C(C)(C)C(=O)C=C[C@]2(C)C2CCC3(C)C(c4ccoc4)C(=O)C4OC43[C@]12C (stereo not given in full)               GI50    20.8 µM (inactive)
1             O=S1(=O)c2ccccc2N(O)C2=NCCN21               GI50   > 100 µM (inactive)
2                            CCCCCNc1nonc1N               GI50   > 100 µM (inactive)
3  CC[C@@]1(O)C(=O)OCc2c1cc1n(c2=O)Cc2c-1nc1ccc(O)cc1c2[Si](C)(C)C(C)(C)C               GI50  < 0.0123 µM (active)
4   O=c1cc(N2CCCC2)[nH]c(=O)n1-c1ccc(Cl)cc1               GI50   > 100 µM (inactive)

====

- Tested on: MDA-MB-435
- method_notes: NCI tumour cell line growth inhibition, 48 h
Calls of active or inactive are those of the source. Rule as the data show it: active = GI50 up to about 1.1 µM and inactive = higher. Residues, ends and D or L forms follow the SMILES beside them. *: point of attachment. Boc = CC(C)(C)OC(=O)*; OBn = c1ccc(CO*)cc1
Classes used: active, inactive

compound	target	discrete_label
Clc1cc(Cl)cc(/C=N/C23CC4CC(CC(C4)C2)C3)c1	MDA-MB-435	inactive
Cn1cccc1-c1ccc(-c2ccc(CO)[se]2)[se]1	MDA-MB-435	inactive
c1c[nH]c(CN2CCN(Cc3ncc[nH]3)CC2)n1	MDA-MB-435	inactive
O=C(NCCCCCCCN1CCCCCCC1)C(C1CCCCC1)C1CCCCC1	MDA-MB-435	inactive
COC(=O)c1c2c(c3[nH]c4ccccc4c3c1C(=O)OC)C(=O)C1=C(C2=O)C2(Cl)C(Cl)C(Cl)C1(Cl)C2(Cl)Cl (stereo not drawn)	MDA-MB-435	active
CC(C)(C)OC(=O)NCCNCCNc1ccccc1	MDA-MB-435	inactive
O=c1cc(N2CCCC2)[nH]c(=O)n1-c1ccc(Cl)cc1	MDA-MB-435	inactive
CCCc1c(O)nc2ccccc2c1O	MDA-MB-435	inactive
CCOc1ccccc1NC(=O)C(=O)C(/C(=N/N)C(=O)OC)c1nc2ccc([N+](=O)[O-])cc2nc1O (stereo not drawn)	MDA-MB-435	inactive
CCOC(=O)Cn1c(C)nc2nn(Cc3ccccc3)cc2c1=O	MDA-MB-435	inactive
O=C1c2ccccc2C(=O)C2NC(CCCCCSSCCCCCC3=NC4C(=O)c5ccccc5C(=O)C4N3)=NC12 (stereo not drawn)	MDA-MB-435	inactive
CCCCOC(=O)Nc1ccc(S(=O)(=O)Nc2c(Cl)cccc2Cl)cc1	MDA-MB-435	inactive
CC1(C)OC2[C@@H](CO[C@@]3([C@@H](O)CCO)OC(C)(C)O[C@@H]23)O1 (stereo partly drawn)	MDA-MB-435	inactive
CCOC(=O)C1C(c2ccco2)C2(C#N)C(=N)OC1(C)C2(C#N)C#N (stereo not drawn)	MDA-MB-435	inactive
CCCCCCCCCCCCCCCCOP(=O)([O-])OCC[N+](C)(C)C	MDA-MB-435	inactive
CCN(CC)CCN1c2ccccc2Sc2ccc3ccccc3c21	MDA-MB-435	inactive
COC(=O)CC(C)(N[S+]([O-])c1ccc(C)cc1)c1ccccc1 (stereo not drawn)	MDA-MB-435	inactive
CC(NC(=O)CNC(=O)OC(C)(C)C)C(=O)NC(Cc1ccccc1)C(=O)OCc1ccccc1 (stereo not drawn) (Boc-Gly-Ala-Phe-OBn; configuration not given here)	MDA-MB-435	inactive

====

- System: HCC 2998
- method_notes: NCI tumour cell line growth inhibition, 48 h
Active and inactive are the calls of the source. Rule as the data show it: active = GI50 up to about 1.1 µM and inactive = higher.
Classes used: active, inactive

compound	target	discrete_label
CCOC(=O)c1cn(-c2ccc([N+](=O)[O-])cc2)c(=S)n2c1nc1ccccc12	HCC 2998	inactive
CC12CCC3[C@@H](CC3(C)C)C(O)(CCC1=O)C2 (some centres not stated)	HCC 2998	inactive
NC(=O)c1ccccc1NC(=O)C(=O)Cc1nc2ccccc2nc1O	HCC 2998	inactive
C=C1C2C[C@@H]3O[C@H]4C[C@H]5O[C@@]6(C[C@@H]7O[C@]8(C[C@H](C)[C@@H]9O[C@@H]%10CC(CO)O[C@@H]%10C[C@@H]9O8)C[C@H](C)[C@@H]7O6)C[C@H]5O[C@H]4[C@H](C)[C@H]3OC(=O)C[C@H]3CC[C@@H]4OC5[C@H]6O[C@]7(CC[C@H]8CC(=C)[C@H](CC[C@@H](C[C@H]1C)O2)O8)CC6O[C@@H]5[C@@H](O7)[C@H]4O3 (some centres not stated)	HCC 2998	active
O=C(NCc1ccc2ccc3cccnc3c2n1)c1ccc[n+](Cc2ccccc2)c1	HCC 2998	inactive
CCOC(=O)c1csc(NC(=O)CN2CCCC2)n1	HCC 2998	inactive
CC(=O)ONC(C(=O)C(C)(C)C)C(=O)C(C)(C)C	HCC 2998	inactive
CCN1CC2=C(N=c3s/c(=C\c4ccc(Cl)cc4)c(=O)n3C2c2ccc(Cl)cc2)/C(=C/c2ccc(Cl)cc2)C1 (configuration not stated)	HCC 2998	inactive
O=C(CNc1c(Cl)cccc1Cl)NC1C=Cc2ccc(S(=O)(=O)Nc3c(Cl)cccc3Cl)cc2C1=O (configuration not stated)	HCC 2998	inactive
COc1ccc2oc(=O)cc(C)c2c1	HCC 2998	inactive
N/N=C1\CCCc2c1no[n+]2[O-]	HCC 2998	inactive
Cn1c2ccccc2c(=O)c2cccc(C(=O)NCC(=O)O)c21	HCC 2998	inactive
O=c1ccc(=O)c2c1c1[nH]c3ccccc3c1c1c(=O)c3ccccc3c(=O)c21	HCC 2998	inactive
CC1=CC(O)CC(C)(C)C1/C=C/C(C)=C/C=C/C(C)=C/C=C/C=C(C)/C=C/C=C(C)/C=C/C1=C(C)CC(O)CC1(C)C (configuration not stated)	HCC 2998	inactive
N#CC(C(=O)C(=O)NCCCNC(=O)C(=O)C(C#N)c1ccccc1)c1ccccc1 (configuration not stated)	HCC 2998	inactive
COc1cc(N)c2[nH]c3c(C)ccc(C)c3c2c1	HCC 2998	inactive
CC[C@@]1(O)C(=O)OCc2c1cc1n(c2=O)Cc2c-1nc1ccc(O)cc1c2CC[Si](C)(C)C	HCC 2998	active
Cc1nc(N)sc1C(=O)/C=C/c1ccc(/C=C/C(=O)c2sc(NC(=O)CCCCCCCCC(=O)Nc3nc(C)c(C(=O)/C=C/c4ccc(/C=C/C(=O)c5sc(N)nc5C)cc4)s3)nc2C)cc1	HCC 2998	inactive
CC1CCC2(CC1)N=C1CCC(C)CC1C1(CCC(C)CC1)N2 (configuration not stated)	HCC 2998	inactive
COc1ccc(CCn2c(=O)c3ccccc3n(C)c2=O)cc1	HCC 2998	inactive
COC(=O)c1ccc(/C=C2\Oc3cc(O)ccc3C2=O)cc1	HCC 2998	inactive
Nc1ccc(Oc2ccc(C3(c4ccc(Oc5ccc(N)c(O)c5)cc4)C4CC5CC(C4)CC3C5)cc2)cc1O	HCC 2998	inactive

====

- System: LOX IMVI
- method_notes: NCI tumour cell line growth inhibition, 48 h
The source made the active and inactive calls. Cut-off read from the data, not from the text of the source: active = GI50 up to about 1.1 µM and inactive = higher.
Classes used: active, inactive

compound	discrete_label
Cc1cc(C)nc(Sc2c([N+](=O)[O-])ncn2C)n1	inactive
O=C1O[C@H]2[C@H](O)[C@@H](OC(=O)c3cc(O)c(O)c4c3[C@@H]3C1=CC(=O)C(O)(O)C3(O)O4)[C@H](OC(=O)c1cc(O)c(O)c(O)c1)O[C@@H]2CO (some centres undefined)	inactive
CN1C(=O)CSC1=S	inactive
CC(C)(C)N/C(N)=N/C#N	inactive
Oc1cccc2c1[nH]c1c(C3=C[C@@]4(O)CC/C=C\CCCCN5CC[C@@H]3[C@]3(CC6/C=C\CCCCN6[C@H]34)C5)nccc12 (some centres undefined)	active
CC[C@@]1(O)C(=O)OCc2c1cc1n(c2=O)Cc2c-1nc1ccc(O)cc1c2[Si](C)(C)C(C)(C)C	active
COC(=O)c1ccc(NCc2cc(OC)ccc2OC)cc1	inactive
C=C1C(=O)OC2/C=C(\C)C(O)/C=C\C(C)(O)CC(OC(=O)/C(C)=C/C)C12 (centres undefined)	inactive
COc1cc(C2SC(=N)Nc3c2c(C)nn3C(=O)Cc2ccccc2)cc(OC)c1OC (centres undefined)	inactive

====

- Tested on: ACHN
- method_notes: NCI tumour cell line growth inhibition, 48 h
Calls of active or inactive are those of the source. Cut-off read from the data, not from the text of the source: active = GI50 up to about 1.1 µM and inactive = higher. Residues, ends and D or L forms follow the SMILES beside them. *: point of attachment. Boc = CC(C)(C)OC(=O)*; OBn = c1ccc(CO*)cc1
Classes used: active, inactive

molecule	target	discrete_label
O=[N+]([O-])c1cc(I)cc(/C=N/NS(=O)(=O)c2ccc(F)cc2)c1O	ACHN	inactive
CC(NC(=O)CNC(=O)OC(C)(C)C)C(=O)NC(Cc1ccccc1)C(=O)OCc1ccccc1 (stereo not drawn) (Boc-Gly-Ala-Phe-OBn; configuration not given here)	ACHN	inactive
Cc1cc(S(=O)(=O)NC2=NCc3nc4ccccc4n32)c(S)cc1Cl	ACHN	inactive
CCOC(O)C(F)(F)F (stereo not drawn)	ACHN	inactive
Nc1nc(N)c2cc(Sc3cccc(C(F)(F)F)c3)ccc2n1	ACHN	active
CN1CCn2c(Br)ccc2C1=O	ACHN	inactive
CCN(CC)CCN1c2ccccc2Sc2ccc3ccccc3c21	ACHN	inactive
Cc1nc(N)sc1C(=O)/C=C/c1ccc(/C=C/C(=O)c2sc(NC(=O)CCCCCCCCC(=O)Nc3nc(C)c(C(=O)/C=C/c4ccc(/C=C/C(=O)c5sc(N)nc5C)cc4)s3)nc2C)cc1	ACHN	inactive
COc1cc2c(cc1C)NC(=O)/C2=C\c1ccncc1	ACHN	inactive
CC12CCC3[C@@H](CC3(C)C)C(O)(CCC1=O)C2 (stereo partly drawn)	ACHN	inactive
O=C(O)c1ccccc1C(=O)Nc1cc2c(cc1Br)-c1ccccc1C2=O	ACHN	inactive
Cc1cccc(C)c1NC(=O)CCc1n[nH]c(=S)o1	ACHN	inactive
COCCN(C(=O)c1ccccc1)C1CCC(=O)c2[nH]c3ccccc3c21 (stereo not drawn)	ACHN	inactive
CCCCCN(CCCCC)C(=O)[C@H](CCC(=O)OCc1ccccc1)NC(=O)c1cc2ccccc2[nH]1	ACHN	inactive
CC(C)NC(=O)OCc1nnn2c1CCC2	ACHN	inactive
O=C(NC(Cc1c[nH]c2ccccc12)C(=O)Nc1ccc(Br)cc1)OCc1ccccc1 (stereo not drawn)	ACHN	inactive
O=C1O[C@H]2[C@H](O)[C@@H](OC(=O)c3cc(O)c(O)c4c3[C@@H]3C1=CC(=O)C(O)(O)C3(O)O4)[C@H](OC(=O)c1cc(O)c(O)c(O)c1)O[C@@H]2CO (stereo partly drawn)	ACHN	inactive
CSCC[C@H](NC(=O)[C@H](CC(C)C)NC(=O)[C@@H](Cc1ccccc1)NC(=O)CNC(=O)[C@@H](NC(=O)[C@H](C)NC(=O)[C@H](Cc1c[nH]c2ccccc12)NC(=O)[C@H](CCC(N)=O)NC(=O)[C@H](N)CC(N)=O)C(C)C)C(N)=O	ACHN	inactive
